IC50 (IL4, ng/mL), TF-1 Cells, inhibition of IL4-induced proliferation values, listed per item
- studyTarget: T1, receptors of IL4/IL13 on TF-1 cells and PBMC (IL4 receptor) (human, UniProt P24394 26-825)
- T1 sequence (looked up): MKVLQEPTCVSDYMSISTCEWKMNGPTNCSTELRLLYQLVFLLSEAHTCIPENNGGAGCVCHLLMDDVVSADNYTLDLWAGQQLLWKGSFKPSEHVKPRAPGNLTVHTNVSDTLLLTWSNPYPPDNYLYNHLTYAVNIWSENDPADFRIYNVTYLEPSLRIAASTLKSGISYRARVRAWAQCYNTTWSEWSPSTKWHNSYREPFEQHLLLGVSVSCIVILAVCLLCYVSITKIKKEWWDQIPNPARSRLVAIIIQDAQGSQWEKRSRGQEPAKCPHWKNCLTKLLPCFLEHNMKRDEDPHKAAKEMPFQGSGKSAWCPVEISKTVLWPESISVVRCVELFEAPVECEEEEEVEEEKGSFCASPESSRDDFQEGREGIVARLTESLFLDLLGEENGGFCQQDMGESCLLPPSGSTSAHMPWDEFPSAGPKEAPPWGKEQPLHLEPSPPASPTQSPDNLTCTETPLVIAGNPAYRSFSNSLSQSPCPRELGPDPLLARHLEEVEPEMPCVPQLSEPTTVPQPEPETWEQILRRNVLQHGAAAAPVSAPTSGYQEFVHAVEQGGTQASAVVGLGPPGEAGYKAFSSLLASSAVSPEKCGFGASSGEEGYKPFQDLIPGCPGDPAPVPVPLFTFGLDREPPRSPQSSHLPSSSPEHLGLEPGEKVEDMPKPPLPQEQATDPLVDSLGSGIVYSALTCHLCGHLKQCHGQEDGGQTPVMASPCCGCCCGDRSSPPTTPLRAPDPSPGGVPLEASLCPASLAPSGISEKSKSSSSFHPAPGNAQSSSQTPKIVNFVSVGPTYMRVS
- assayInfo: cell-based or functional assay
attributeMeasured: IC50 (IL4, ng/mL), TF-1 Cells, inhibition of IL4-induced proliferation

{"binder": "IL4R-BA167-IgG4 (antibody, V domains shown, also called IL4RQ6-BA167) VH: QVQLVESGGGVVQPGRSLRLSCAASGFTFSSYAMHWVRQAPGKGLEWVAVISYDGSNKYYADSVKGRFTISRDNSKNTLYLQMNSLRAEDTAVYYCARGLTTVRGVLYWGQGTLVTVSS VL: EIVMTQSPSSLSASLGDRVTITCRASQNIGSRLAWYQQKPGKAPKLLIYKASSLESGVPSRFSGSGSGTEFTLTISSLQPDDFATYYCQQYNSYSWTFGQGTKLEIKR", "unitDescriptor": "ng/mL", "result": 139}
{"binder": "IL4R-BA030-IgG4 (antibody, V domains shown, also called IL4RQ14-BA030) VH: QVQLVESGGGVVQPGRSLRLSCAASGFTFSSYAIHWVRQAPGKGLEWVAVISYDGSKKYYADSVKGRFTISRDNSKNTLYLQMNSLRAEDTAVYYCAREYYYGMDVWGQGTTVTVSS VL: DIVMTQSPSTLSASVGDRVTITCRASQSISNWLAWYQQKPGKAPKRLIYKASSLESGVPSRFSGSGSGTEFTLTISSLQPDDFATYYCQQYNRYFTFGQGTKLEIKR", "unitDescriptor": "ng/mL", "result": 227}
{"binder": "Dupilumab (antibody, human IgG4 S228P, kappa, V domains shown) VH: EVQLVESGGGLEQPGGSLRLSCAGSGFTFRDYAMTWVRQAPGKGLEWVSSISGSGGNTYYADSVKGRFTISRDNSKNTLYLQMNSLRAEDTAVYYCAKDRLSITIRPRYYGLDVWGQGTTVTVSS VL: DIVMTQSPLSLPVTPGEPASISCRSSQSLLYSIGYNYLDWYLQKSGQSPQLLIYLGSNRASGVPDRFSGSGSGTDFTLKISRVEAEDVGFYYCMQALQTPYTFGQGTKLEIKR", "unitDescriptor": "ng/mL", "result": 65}
{"binder": "IL4R-BA173-IgG4 (antibody, V domains shown, also called IL4RQ6-BA173) VH: QVQLVESGGGVVQPGRSLRLSCAASGFTFSSYAMHWVRQAPGKGLEWVAVISYDGSNKYYADSVKGRFTISRDNSKNTLYLQMNSLRAEDTAVYYCARGLTTVRGVLYWGQGTLVTVSS VL: DIVMTQSPSTLSASVGDRVTITCRASQSISTRLAWYQQKPGKAPKLLVYWASSLESGVPSRFSGSGSGTEFTLAISSLQPDDFGTYYCQQYTSYSWTFGQGTKLEIKR", "unitDescriptor": "ng/mL", "result": 66}
